- Tested on: HOP-62 NSCLC
- protocol details: NCI tumour cell line growth inhibition, 48 h
Provide the recorded TGI for the entries that follow.

Any idea what its TGI is? The molecule is CC(C)(C)C1CCP(=O)(c2ccccc2)CC1 (configuration not stated)
> 100 µM

Please answer likewise for CN(C)C=NCc1ccc2c(c1)OCO2
> 100 µM

Please answer likewise for c1csc(-c2sc(-c3ccsc3)cc2Cc2ccsc2)c1
> 10 µM

Please answer likewise for Cc1cc(Br)c2nsnc2c1[N+](=O)[O-]
16.3 µM

Please answer likewise for C/C(=C\CCc1ccsc1)CC/C=C(\C)CCCN1CCN(CCO)CC1
6.4 µM

Please answer likewise for O=C(NC1CCNCC1)c1[nH]ncc1NC(=O)c1c(Cl)cccc1Cl
> 100 µM

Please answer likewise for CC(C)(C)c1cc(Oc2ccc(C#N)c(C#N)c2)cc(C(C)(C)C)c1
> 100 µM
